B1: TPR t1 (parent)
chain: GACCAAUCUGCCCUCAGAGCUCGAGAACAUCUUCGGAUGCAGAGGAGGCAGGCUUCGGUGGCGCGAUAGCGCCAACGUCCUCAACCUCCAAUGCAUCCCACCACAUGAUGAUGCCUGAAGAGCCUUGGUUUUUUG

variants of: B1; assay: polymerase ribozyme fitness, log enrichment relative to wild type (log ratio); higher = more active; in vitro selection for triplet polymerase activity
Measurement Name: polymerase ribozyme fitness (log ratio)
A bare number is all that is needed in reply.

Solved cases (8 shown):
A5G C40U G69U A100G; -1.21
G44A U96G; -2.12
C4G C70G; -3.78
C13U C56G; 0.205
U78G U116C U133A; -0.304
A29C G36U A43U G44A G69U A121C; -2.34
U9G C72G G113A G120A; -1.17
C12G A16U G48A C82A; -3.19

// polymerase ribozyme fitness (log ratio) lookup, key: A29U C62G U106A
-2.35

For the variant shown here, C13U C40A G120A U131G , give the reported polymerase ribozyme fitness (log ratio).
-0.101

Reported polymerase ribozyme fitness (log ratio), variant C56A G107A A121C : ____
-4.32

Need polymerase ribozyme fitness (log ratio) of C53U G60C G120A , thanks.
0.0788

Query (variant): G69U C98A ; field requested: polymerase ribozyme fitness (log ratio)
-2.07

So what does the record say about polymerase ribozyme fitness (log ratio) for A46U C104U ?
-0.991

Entry U9G C99U C124A U131G has what polymerase ribozyme fitness (log ratio)?
-3.14

# query: polymerase ribozyme fitness (log ratio) of entry G47U A95C U96A
-4.33

I am curious: what polymerase ribozyme fitness (log ratio) value has been reported for G113C G120C ?
-2.85

Entry under review: C99G A121U . Reported polymerase ribozyme fitness (log ratio)?
-6.54
